target: hKOR (Homo sapiens, UniProt P41145); assay: KOR cAMP assay using GloSensor-22F, antagonist mode (vs 10 nM U50,488); format: cell-based
Sequence (P41145 whole entry): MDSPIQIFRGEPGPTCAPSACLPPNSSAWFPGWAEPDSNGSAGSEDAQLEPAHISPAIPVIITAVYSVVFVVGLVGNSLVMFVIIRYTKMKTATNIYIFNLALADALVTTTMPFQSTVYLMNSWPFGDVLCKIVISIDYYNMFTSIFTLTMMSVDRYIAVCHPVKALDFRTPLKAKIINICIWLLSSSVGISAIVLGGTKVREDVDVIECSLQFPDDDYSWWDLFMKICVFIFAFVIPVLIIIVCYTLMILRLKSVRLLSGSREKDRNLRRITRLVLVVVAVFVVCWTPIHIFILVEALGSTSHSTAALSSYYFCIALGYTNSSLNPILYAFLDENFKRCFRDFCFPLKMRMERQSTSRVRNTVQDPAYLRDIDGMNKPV
Where a SMILES comes first, the peptide text is derived from it. [ ]: non-standard residue; d: D form. The star is where a group is joined. dPhe(4-NO2) = N[C@H](Cc1ccc([N+](=O)[O-])cc1)C(=O)O; dPhe(3,4,5-F3) = N[C@H](Cc1cc(F)c(F)c(F)c1)C(=O)O; dTrp(1-Me) = Cn1cc(C[C@@H](N)C(=O)O)c2ccccc21; dPhe(3,4-F2) = N[C@H](Cc1ccc(F)c(F)c1)C(=O)O; dPhe(3,5-F2) = N[C@H](Cc1cc(F)cc(F)c1)C(=O)O; dPhe(3-Me) = Cc1cccc(C[C@@H](N)C(=O)O)c1; dPhe(3-F) = N[C@H](Cc1cccc(F)c1)C(=O)O; For = O=C*
Output YES for records whose IC50 is lower than 0.3 µM, NO for records at or above 0.3 µM.

Query: Answer whether the compound O=C1N[C@H](Cc2c[nH]c3ccccc23)C(=O)N[C@@H](Cc2ccccc2)C(=O)N2CCC[C@@H]2C(=O)N[C@H]1Cc1ccccc1 [Analog 1, cyclo[Phe-D-Pro-Phe-D-Trp]] (cyclo(F[dP]F[dW])) has IC50 strictly less than 0.3 µM
Reply: YES

Query: Proceed to O=C1N[C@H](Cc2ccc(F)c(F)c2)C(=O)N[C@@H](Cc2ccccc2)C(=O)N2CCC[C@@H]2C(=O)N[C@H]1Cc1ccccc1 [Analog 8] (cyclo(F[dP]F[dPhe(3,4-F2)]))
Reply: YES

Query: Proceed to O=C1N[C@H](Cc2ccc([N+](=O)[O-])cc2)C(=O)N[C@@H](Cc2ccccc2)C(=O)N2CCC[C@@H]2C(=O)N[C@H]1Cc1ccccc1 [Analog 16] (cyclo(F[dP]F[dPhe(4-NO2)]))
Reply: YES

Query: Proceed to O=C1N[C@H](Cc2ccccc2)C(=O)N[C@@H](Cc2ccccc2)C(=O)N2CCC[C@@H]2C(=O)N[C@H]1Cc1ccccc1 [Analog 4, cyclo[Phe-D-Pro-Phe-D-Phe]] (cyclo(F[dP]F[dF]))
Reply: NO

Query: Proceed to O=C1N[C@H](Cc2cc(F)c(F)cc2F)C(=O)N[C@@H](Cc2ccccc2)C(=O)N2CCC[C@@H]2C(=O)N[C@H]1Cc1ccccc1
Reply: YES

Query: Proceed to O=C1N[C@H](Cc2cccc(F)c2)C(=O)N[C@@H](Cc2ccccc2)C(=O)N2CCC[C@@H]2C(=O)N[C@H]1Cc1ccccc1 [Analog 6, [D-Phe(m-F)^4]CJ-15,208] (cyclo(F[dP]F[dPhe(3-F)]))
Reply: NO

Query: Proceed to O=C1N[C@H](Cc2cc(F)cc(F)c2)C(=O)N[C@@H](Cc2ccccc2)C(=O)N2CCC[C@@H]2C(=O)N[C@H]1Cc1ccccc1 [Analog 9, [D-Phe(3,5-F2)^4]CJ-15,208] (cyclo(F[dP]F[dPhe(3,5-F2)]))
Reply: NO

Query: Proceed to O=C1N[C@H](Cc2cc(F)c(F)c(F)c2)C(=O)N[C@@H](Cc2ccccc2)C(=O)N2CCC[C@@H]2C(=O)N[C@H]1Cc1ccccc1 [Analog 11] (cyclo(F[dP]F[dPhe(3,4,5-F3)]))
Reply: YES

Query: Proceed to Cc1cccc(C[C@H]2NC(=O)[C@H](Cc3ccccc3)NC(=O)[C@H]3CCCN3C(=O)[C@H](Cc3ccccc3)NC2=O)c1 [Analog 14, [D-Phe(m-Me)^4]CJ-15,208] (cyclo(F[dP]F[dPhe(3-Me)]))
Reply: NO

Query: Proceed to Cn1cc(C[C@H]2NC(=O)[C@H](Cc3ccccc3)NC(=O)[C@H]3CCCN3C(=O)[C@H](Cc3ccccc3)NC2=O)c2ccccc21 [Analog 2, [D-Trp(Me)]CJ-15,208] (cyclo(F[dP]F[dTrp(1-Me)]))
Reply: YES

Query: Proceed to O=Cn1cc(C[C@H]2NC(=O)[C@H](Cc3ccccc3)NC(=O)[C@H]3CCCN3C(=O)[C@H](Cc3ccccc3)NC2=O)c2ccccc21 [Analog 3, [D-Trp(formamide)]CJ-15,208] (cyclo(F[dP]F[dW](For)))
Reply: YES

###

test: Metabolic stability in human liver microsomes; assay type: in vitro ADME; conditions: human liver microsomes, 1 mg protein/mL, read-out: HLM CLint
Where a SMILES comes first, the peptide text is derived from it. [ ]: non-standard residue; d: D form. dPhe(3,4,5-F3) = N[C@H](Cc1cc(F)c(F)c(F)c1)C(=O)O; dPhe(3,4-F2) = N[C@H](Cc1ccc(F)c(F)c1)C(=O)O; dPhe(3,5-F2) = N[C@H](Cc1cc(F)cc(F)c1)C(=O)O
quantity_name: microsomal CLint at 1 µM (µL/min/mg)
Report as a plain number; the unit µL/min/mg is understood.

Query: Any idea what microsomal CLint at 1 µM was measured for O=C1N[C@H](Cc2cc(F)c(F)cc2F)C(=O)N[C@@H](Cc2ccccc2)C(=O)N2CCC[C@@H]2C(=O)N[C@H]1Cc1ccccc1 ?
Reply: 462

Query: Proceed to O=C1N[C@H](Cc2ccc(F)c(F)c2)C(=O)N[C@@H](Cc2ccccc2)C(=O)N2CCC[C@@H]2C(=O)N[C@H]1Cc1ccccc1 [Analog 8] (cyclo(F[dP]F[dPhe(3,4-F2)]))
Reply: 309

Query: Proceed to O=C1N[C@H](Cc2cc(F)c(F)c(F)c2)C(=O)N[C@@H](Cc2ccccc2)C(=O)N2CCC[C@@H]2C(=O)N[C@H]1Cc1ccccc1 [Analog 11] (cyclo(F[dP]F[dPhe(3,4,5-F3)]))
Reply: 447

Query: Proceed to O=C1N[C@H](Cc2cc(F)cc(F)c2)C(=O)N[C@@H](Cc2ccccc2)C(=O)N2CCC[C@@H]2C(=O)N[C@H]1Cc1ccccc1 [Analog 9, [D-Phe(3,5-F2)^4]CJ-15,208] (cyclo(F[dP]F[dPhe(3,5-F2)]))
Reply: 237

Query: Proceed to O=C1N[C@H](Cc2c[nH]c3ccccc23)C(=O)N[C@@H](Cc2ccccc2)C(=O)N2CCC[C@@H]2C(=O)N[C@H]1Cc1ccccc1 [Analog 1, cyclo[Phe-D-Pro-Phe-D-Trp]] (cyclo(F[dP]F[dW]))
Reply: 127

###

assay: Metabolic stability in human liver microsomes; type: in vitro ADME; conditions: human liver microsomes, 1 µM compound, 1 mg protein/mL, 37 °C, read-out: HLM t1/2
Where a SMILES comes first, the peptide text is derived from it. [ ]: non-standard residue; d: D form. dTrp(1-Me) = Cn1cc(C[C@@H](N)C(=O)O)c2ccccc21; dPhe(3-F) = N[C@H](Cc1cccc(F)c1)C(=O)O
Give measured half-life at 1 µM for each item. Keep answers brief.
Report as a plain number; the unit min is understood.

Query: Any idea what half-life at 1 µM was measured for O=C1N[C@H](Cc2cc(F)c(F)cc2F)C(=O)N[C@@H](Cc2ccccc2)C(=O)N2CCC[C@@H]2C(=O)N[C@H]1Cc1ccccc1 ?
Reply: 1.5

Query: Proceed to Cn1cc(C[C@H]2NC(=O)[C@H](Cc3ccccc3)NC(=O)[C@H]3CCCN3C(=O)[C@H](Cc3ccccc3)NC2=O)c2ccccc21 [Analog 2, [D-Trp(Me)]CJ-15,208] (cyclo(F[dP]F[dTrp(1-Me)]))
Reply: 2.4

Query: Proceed to O=C1N[C@H](Cc2cccc(F)c2)C(=O)N[C@@H](Cc2ccccc2)C(=O)N2CCC[C@@H]2C(=O)N[C@H]1Cc1ccccc1 [Analog 6, [D-Phe(m-F)^4]CJ-15,208] (cyclo(F[dP]F[dPhe(3-F)]))
Reply: 1.8

###

Give measured Ki for each item. Keep answers brief.
target: human MOR (Homo sapiens); construct: expressed in transfected cells; assay: biochemical; type: binding; conditions: [3H]DAMGO, human MOR; ± S.E.M., three independent experiments; read-out: MOR Ki
Sequence (P35372 whole entry): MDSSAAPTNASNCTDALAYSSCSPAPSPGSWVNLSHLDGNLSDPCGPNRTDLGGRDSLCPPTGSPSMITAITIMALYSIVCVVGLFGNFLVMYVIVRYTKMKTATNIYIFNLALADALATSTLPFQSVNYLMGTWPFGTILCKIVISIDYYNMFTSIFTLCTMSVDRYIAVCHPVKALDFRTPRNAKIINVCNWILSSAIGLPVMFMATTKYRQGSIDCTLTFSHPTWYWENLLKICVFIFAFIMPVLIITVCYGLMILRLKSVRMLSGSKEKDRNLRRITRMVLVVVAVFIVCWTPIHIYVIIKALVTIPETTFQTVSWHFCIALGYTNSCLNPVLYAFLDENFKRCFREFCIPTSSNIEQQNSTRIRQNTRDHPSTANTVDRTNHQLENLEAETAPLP
Where a SMILES comes first, the peptide text is derived from it. [ ]: non-standard residue; d: D form. dPhe(3,4,5-F3) = N[C@H](Cc1cc(F)c(F)c(F)c1)C(=O)O; dTrp(1-Me) = Cn1cc(C[C@@H](N)C(=O)O)c2ccccc21; dPhe(3,4-F2) = N[C@H](Cc1ccc(F)c(F)c1)C(=O)O; dPhe(3,5-F2) = N[C@H](Cc1cc(F)cc(F)c1)C(=O)O; dPhe(2-Me) = Cc1ccccc1C[C@@H](N)C(=O)O

Query: Any idea what Ki was measured for Cc1ccccc1C[C@H]1NC(=O)[C@H](Cc2ccccc2)NC(=O)[C@H]2CCCN2C(=O)[C@H](Cc2ccccc2)NC1=O [Analog 13] (cyclo(F[dP]F[dPhe(2-Me)])) ?
Reply: 280 nM

Query: Proceed to O=C1N[C@H](Cc2ccc(F)c(F)c2)C(=O)N[C@@H](Cc2ccccc2)C(=O)N2CCC[C@@H]2C(=O)N[C@H]1Cc1ccccc1 [Analog 8] (cyclo(F[dP]F[dPhe(3,4-F2)]))
Reply: 57 nM

Query: Proceed to Cn1cc(C[C@H]2NC(=O)[C@H](Cc3ccccc3)NC(=O)[C@H]3CCCN3C(=O)[C@H](Cc3ccccc3)NC2=O)c2ccccc21 [Analog 2, [D-Trp(Me)]CJ-15,208] (cyclo(F[dP]F[dTrp(1-Me)]))
Reply: 36 nM

Query: Proceed to O=C1N[C@H](Cc2cc(F)c(F)c(F)c2)C(=O)N[C@@H](Cc2ccccc2)C(=O)N2CCC[C@@H]2C(=O)N[C@H]1Cc1ccccc1 [Analog 11] (cyclo(F[dP]F[dPhe(3,4,5-F3)]))
Reply: 46 nM

Query: Proceed to O=C1N[C@H](Cc2cc(F)cc(F)c2)C(=O)N[C@@H](Cc2ccccc2)C(=O)N2CCC[C@@H]2C(=O)N[C@H]1Cc1ccccc1 [Analog 9, [D-Phe(3,5-F2)^4]CJ-15,208] (cyclo(F[dP]F[dPhe(3,5-F2)]))
Reply: 290 nM
